test_target: human thrombin (Homo sapiens, UniProt P00734)
pKi: −log10 of the molar value.
readout_label: pKi

Sample answers from the record:
compound=NCCCC[C@H](NC(=O)Cn1cnc(CCc2ccccc2)n1)B(O)O readout_label=pKi assay_value="> 4.30"
compound="CC1(C)C2CC3OB([C@H](CCCCN)NC(=O)Cn4nc(CCc5ccccc5)nc4CO)OC3(C)C1C2 (single isomer, unassigned)" readout_label=pKi assay_value="> 6.30"
compound="CC1(C)C2CC3OB([C@H](CCCCN)NC(=O)Cn4nc(Cc5ccccc5)nc4CC(=O)O)OC3(C)C1C2 (single isomer, unassigned)" readout_label=pKi assay_value="> 4.30"
compound="COCCC[C@H](NC(=O)Cn1nc(CC#N)nc1Cc1ccccc1)B1OC2CC3CC(C3(C)C)C2(C)O1 (single isomer, unassigned)" readout_label=pKi assay_value="> 6.30"
compound=CC1(C)[C@@H]2C[C@H]3OB([C@H](CCCCN)NC(=O)Cn4nc(CO)nc4Cc4ccccc4)O[C@@]3(C)[C@H]1C2 readout_label=pKi assay_value="> 6.30"

For this compound ( Cc1cc(-c2ccccc2S(=O)(=O)NC(C)(C)C)ccc1C(=O)N[C@@H](CCCNC(=N)N)B(O)O ), measured pKi is > 6.30

====

test_target: human thrombin (Homo sapiens, UniProt P00734)
Construct: purchased Enzyme Research Laboratories, South Bend, Ind
procedure_summary: Inhibition of human thrombin (chromogenic substrate S2238), inhibitory constant Ki
Type: biochemical
conditions: 0.2-0.5 nM human thrombin, S2238, pH 7.5, 30 minutes; read-out: Ki values for inhibition of Serine Proteases: Thrombin
pKi: −log10 of the molar value.
readout_label: pKi

These recorded examples may help you get a feel for the data.
compound="CC1(C)[C@@H]2C[C@H]3OB([C@H](CCCCN)NC(=O)c4cccc(-c5ccccc5)c4)O[C@@]3(C)[C@H]1C2 [Example 68]" test_target="human thrombin (Homo sapiens, UniProt P00734)" readout_label=pKi assay_value="> 4.30"
compound="CC1(C)C2CC3OB([C@H](CCCCN)NC(=O)Cn4nc(Cc5ccccc5)nc4CC#N)OC3(C)C1C2 (single isomer, unassigned) [Example 2422]" test_target="human thrombin (Homo sapiens, UniProt P00734)" readout_label=pKi assay_value="> 6.30"

Continue with the next compound.
Lab note: CC1(C)C2CC3OB([C@H](CCCNC(=N)N)NC(=O)Cn4nc(Cc5ccccc5)nc4-c4cccc([N+](=O)[O-])c4)OC3(C)C1C2 (single isomer, unassigned) [Example 2491] gave pKi of > 6.30

====

test_target: human factor VIIa (Homo sapiens)
Construct: Factor VIIa in the extrinsic pathway; purchased BiosPacific, Emeryville, Calif
procedure_summary: Inhibition of human factor VIIa (chromogenic substrate S2288), inhibitory constant Ki
Format: biochemical
conditions: 50 nM human factor VIIa, S2288, pH 7.6, 4 mM CaCl2, 30 minutes; read-out: Ki values for inhibition of Serine Proteases: Factor VIIa
pKi: −log10 of the molar value. Where a name gives a salt, the structure may show the parent alone.
Hi there, I'd appreciate the recorded pKi for every entry that follows.

Known pKi results, listed for orientation:
molecule=CC1(C)[C@@H]2C[C@H]3OB([C@H](CCCNC(=N)N)NC(=O)c4ccc(-c5ccccc5)cc4[N+](=O)[O-])O[C@@]3(C)[C@H]1C2 test_target="human factor VIIa (Homo sapiens)" assay_value="> 6.30"
molecule=CC(C)(C)NS(=O)(=O)c1ccccc1-c1ccc(C(=O)N[C@@H](CCCNC(=N)N)B2O[C@@H]3C[C@@H]4C[C@@H](C4(C)C)[C@]3(C)O2)c(Cl)c1 test_target="human factor VIIa (Homo sapiens)" assay_value="> 6.30"
molecule=CC1(C)[C@@H]2C[C@H]3OB([C@H](CCCCN)NC(=O)Cn4nc(CC(=O)O)nc4Cc4ccccc4)O[C@@]3(C)[C@H]1C2 test_target="human factor VIIa (Homo sapiens)" assay_value="< 3.30"
molecule=COC(=O)NS(=O)(=O)c1ccccc1-c1ccc(C(=O)N[C@@H](CCCNC(=N)N)B2O[C@@H]3C[C@@H]4C[C@@H](C4(C)C)[C@]3(C)O2)c(C)c1 test_target="human factor VIIa (Homo sapiens)" assay_value="4.30 to 6.30"

Provide pKi for all items below, preserving their order.
1. Cc1nc(Cc2ccccc2)nn1CC(=O)N[C@@H](CCCCN)B1OC2CC3CC(C3(C)C)C2(C)O1 (single isomer, unassigned)
2. CC1(C)[C@@H]2C[C@H]3OB([C@H](CCCCN)NC(=O)Cn4nc(COCc5ccccc5)nc4Cc4ccccc4)O[C@@]3(C)[C@H]1C2
3. CC1(C)C2CC3OB([C@H](CCCCN)NC(=O)Cn4cnc(-c5ccccc5)n4)OC3(C)C1C2 (single isomer, unassigned)
4. CC1(C)[C@@H]2C[C@H]3OB([C@H](CCCNC(=N)N)NC(=O)c4cccc(-c5ccccc5)c4)O[C@@]3(C)[C@H]1C2
5. CSCc1nc(Cc2ccccc2)n(CC(=O)N[C@@H](CCCCN)B2O[C@@H]3C[C@@H]4C[C@@H](C4(C)C)[C@]3(C)O2)n1
6. Cc1nc(-c2ccccc2)ncc1C(=O)N[C@@H](CCCNC(=N)N)B1O[C@@H]2C[C@@H]3C[C@@H](C3(C)C)[C@]2(C)O1 [Example 3538, hydrochloride]
7. CC1(C)C2CC3OB([C@H](CCCCN)NC(=O)Cn4nc(Cc5ccccc5)nc4CO)OC3(C)C1C2 (single isomer, unassigned)

Ans:
1. 4.30 to 6.30
2. 4.30 to 6.30
3. 4.30 to 6.30
4. > 6.30
5. 4.30 to 6.30
6. 4.30 to 6.30
7. 4.30 to 6.30

Quick one: give me pKi for each item below, same order please.
1. CC1(C)C2CC3OB([C@H](CCCCN)NC(=O)Cn4nc(CO)nc4CCc4ccccc4)OC3(C)C1C2 (single isomer, unassigned)
2. CC1(C)C2CC3OB([C@H](CCCCN)NC(=O)Cn4nc(Cc5ccccc5)nc4COCc4ccccc4)OC3(C)C1C2 (single isomer, unassigned)
3. Cc1nc(-c2ccccc2)nn1CC(=O)N[C@@H](CCCCN)B1OC2CC3CC(C3(C)C)C2(C)O1 (single isomer, unassigned)
4. CC1(C)[C@@H]2C[C@H]3OB([C@H](CCCCN)NC(=O)Cn4nc(CO)nc4Cc4ccccc4)O[C@@]3(C)[C@H]1C2
5. CC1(C)[C@@H]2C[C@H]3OB([C@H](CCCNC(=N)N)NC(=O)c4ccc(-c5ccccc5)c(N)c4)O[C@@]3(C)[C@H]1C2
6. NCCCC[C@H](NC(=O)c1ccc(-c2ccccc2)nc1)B(O)O

Ans:
["4.30 to 6.30", "4.30 to 6.30", "4.30 to 6.30", "4.30 to 6.30", "> 6.30", "4.30 to 6.30"]

Required: pKi, one value per molecule below.
1. CCN(CC)S(=O)(=O)c1ccccc1-c1ccc(C(=O)N[C@@H](CCCNC(=N)N)B2O[C@@H]3C[C@@H]4C[C@@H](C4(C)C)[C@]3(C)O2)c(C)c1
2. CC1(C)[C@@H]2C[C@H]3OB([C@H](CCCNC(=N)N)NC(=O)c4ccc(-c5ccccc5)cc4F)O[C@@]3(C)[C@H]1C2
3. CC(C)(C)OC(=O)Nc1cc(-c2ccccc2)ccc1C(=O)N[C@@H](CCCNC(=N)N)B1O[C@@H]2C[C@@H]3C[C@@H](C3(C)C)[C@]2(C)O1
4. Cc1cc(-c2cccc(NC(=O)OC(C)(C)C)c2)ccc1C(=O)N[C@@H](CCCNC(=N)N)B1O[C@@H]2C[C@@H]3C[C@@H](C3(C)C)[C@]2(C)O1
5. NCCCC[C@H](NC(=O)Cn1nc(CCc2ccccc2)nc1CCc1ccccc1)B(O)O

Ans:
1. > 6.30
2. > 6.30
3. 4.30 to 6.30
4. 4.30 to 6.30
5. 4.30 to 6.30

====

Please respond with reported pKi for every item in the list.
test_target: human factor VIIa (Homo sapiens, UniProt P08709)
Construct: Factor VIIa in the extrinsic pathway; purchased BiosPacific, Emeryville, Calif
Sequence (P08709 213-466 limits assumed): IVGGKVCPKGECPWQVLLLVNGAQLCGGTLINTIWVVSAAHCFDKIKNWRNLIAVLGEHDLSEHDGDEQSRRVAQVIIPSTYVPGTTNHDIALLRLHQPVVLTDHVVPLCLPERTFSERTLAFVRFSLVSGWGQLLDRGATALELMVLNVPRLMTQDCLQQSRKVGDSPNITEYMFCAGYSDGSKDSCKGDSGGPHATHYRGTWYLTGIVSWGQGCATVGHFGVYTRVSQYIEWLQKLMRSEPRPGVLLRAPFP
Sequence (P08709 61-212 partner limits assumed): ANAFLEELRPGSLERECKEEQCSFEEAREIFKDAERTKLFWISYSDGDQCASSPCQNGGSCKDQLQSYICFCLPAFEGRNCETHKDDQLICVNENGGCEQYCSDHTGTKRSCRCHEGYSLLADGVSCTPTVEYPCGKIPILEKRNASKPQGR
procedure_summary: Inhibition of human factor VIIa (chromogenic substrate S2288), inhibitory constant Ki
Type: biochemical
conditions: 50 nM human factor VIIa, S2288, pH 7.6, 4 mM CaCl2, 30 minutes; read-out: Ki values for inhibition of Serine Proteases: Factor VIIa
pKi: −log10 of the molar value.

compound="CC1(C)C2CC3OB([C@H](CCCCN)NC(=O)Cn4nc(Cc5ccccc5)nc4CC#N)OC3(C)C1C2 (single isomer, unassigned)" test_target="human factor VIIa (Homo sapiens, UniProt P08709)" readout_label=pKi assay_value="4.30 to 6.30"

Please state pKi for every compound in the list that follows.
1. CC(C)(C)NS(=O)(=O)c1ccccc1-c1ccc(C(=O)N[C@@H](CCCNC(=N)N)B2O[C@@H]3C[C@@H]4C[C@@H](C4(C)C)[C@]3(C)O2)cc1
2. CSCc1nc(Cc2ccccc2)nn1CC(=O)N[C@@H](CCCCN)B1OC2CC3CC(C3(C)C)C2(C)O1 (single isomer, unassigned)

Ans:
["> 6.30", "4.30 to 6.30"]

Required: pKi, one value per compound below.
1. CC1(C)C2CC3OB([C@H](CCCCN)NC(=O)Cn4nc(Cc5ccccc5)nc4-c4ccccc4)OC3(C)C1C2 (stereo partly drawn)
2. COCCC[C@H](NC(=O)c1ccc(-c2ccccc2S(N)(=O)=O)cc1C)B1O[C@@H]2C[C@@H]3C[C@@H](C3(C)C)[C@]2(C)O1
3. CCCc1nc(Cc2ccccc2)nn1CC(=O)N[C@@H](CCCCN)B1OC2CC3CC(C3(C)C)C2(C)O1 (single isomer, unassigned)

Ans:
["4.30 to 6.30", "4.30 to 6.30", "4.30 to 6.30"]

Cited source: patent US5698538A
